Source of measurements: patent US8877763B2

Measured pIC50 values are reported for all entries that follow.
target: JAK2 (Homo sapiens); construct: Truncated human FLT3 wildtype, mutant D835Y, and JAK2; assay: Inhibition of enzymatic JAK2 kinase activity (Lance Ulight TR-FRET)
pIC50: −log10 of the molar value. Counter-ions that a name gives are not always drawn.
OBSERVABLE: pIC50

                                   molecule  observable  result_number
0  CN1CCC(Nc2nc(Nc3ccc(OC4CCCC4)cc3)c3c(=O)[nH]cc(Br)c3n2)CC1       pIC50           6.82
1  CN1CCC(Nc2nc(Nc3ccc(OC4CCCCC4)cc3)c3c(=O)[nH]cc(Br)c3n2)CC1 [Compound 228]       pIC50           6.89
2  CN1CCC(Nc2nc(Nc3ccc(Oc4cccc(F)c4)cc3)c3c(=O)[nH]cc(Br)c3n2)CC1.Cl [Compound 238, hydrochloride]       pIC50           6.07
3  CN1CCC(Nc2nc(Nc3ccc(Oc4ccc(F)c(F)c4)cc3)c3c(=O)[nH]cc(Br)c3n2)CC1 [Compound 241, hydrochloride]       pIC50           5.98

----------
Measured IC50 values are reported for all entries that follow.
target: Truncated human FLT3 wildtype (Homo sapiens); construct: Truncated human FLT3 wildtype; purchased Carna Biosciences; test: Inhibition of enzymatic FLT3 wildtype kinase activity (Lance Ulight TR-FRET); type: biochemical
Where a name gives a salt, the structure may show the parent alone.
OBSERVABLE: IC50 (nM)

>>> df
                                   compound  readout_units  result_number
0  CN1CCC(Nc2nc(Nc3ccc(Oc4cccc(F)c4)cc3)c3c(=O)[nH]cc(Br)c3n2)CC1             nM            1.2
1  CN1CCC(Nc2nc(Nc3ccc(OC4CCCCC4)cc3)c3c(=O)[nH]cc(Br)c3n2)CC1             nM            0.1
2  CN1CCC(Nc2nc(Nc3ccc(Oc4ccc(F)c(F)c4)cc3)c3c(=O)[nH]cc(Br)c3n2)CC1 [Compound 241, hydrochloride]             nM            1.6
3  CN1CCC(Nc2nc(Nc3ccc(OCc4ccccc4)cc3)c3c(=O)[nH]cc(Br)c3n2)CC1             nM            0.1
4  CN1CCC(Nc2nc(Nc3cccc(Oc4ccccc4)c3)c3c(=O)[nH]cc(Br)c3n2)CC1             nM            0.1
5  Cc1ccc(Oc2ccc(Nc3nc(NC4CCN(C)CC4)nc4c(Br)c[nH]c(=O)c34)cc2)cc1             nM            0.3
6  CN1CCC(Nc2nc(Nc3ccc(OC4CCCC4)cc3)c3c(=O)[nH]cc(Br)c3n2)CC1             nM            0.6
7  CN1CCC(Nc2nc(Nc3ccc(Oc4cccc(F)c4)cc3)c3c(=O)[nH]cc(Br)c3n2)CC1.Cl [Compound 238, hydrochloride]             nM            1.4

----------
test system: MV4-11 cells expressing human FLT3-ITD; experiment: Cell viability assay: inhibition of FLT3-ITD-positive cells (ATPLite); assay type: cell-based; details: 72 hour incubation; hydrochloride
OBSERVABLE: IC50 (nM)

>>> df
                                   molecule                         target_of_assay  result_number
0  CN1CCC(Nc2nc(Nc3ccc(Oc4cccc(F)c4)cc3)c3c(=O)[nH]cc(Br)c3n2)CC1.Cl [Compound 238, hydrochloride]  MV4-11 cells expressing human FLT3-ITD            1.9

----------
Target: FLT3 mutant D835Y (Homo sapiens, UniProt P36888, D835Y)
Construct: Truncated human FLT3 wildtype, mutant D835Y
Sequence (P36888 564-993 D835Y limits assumed): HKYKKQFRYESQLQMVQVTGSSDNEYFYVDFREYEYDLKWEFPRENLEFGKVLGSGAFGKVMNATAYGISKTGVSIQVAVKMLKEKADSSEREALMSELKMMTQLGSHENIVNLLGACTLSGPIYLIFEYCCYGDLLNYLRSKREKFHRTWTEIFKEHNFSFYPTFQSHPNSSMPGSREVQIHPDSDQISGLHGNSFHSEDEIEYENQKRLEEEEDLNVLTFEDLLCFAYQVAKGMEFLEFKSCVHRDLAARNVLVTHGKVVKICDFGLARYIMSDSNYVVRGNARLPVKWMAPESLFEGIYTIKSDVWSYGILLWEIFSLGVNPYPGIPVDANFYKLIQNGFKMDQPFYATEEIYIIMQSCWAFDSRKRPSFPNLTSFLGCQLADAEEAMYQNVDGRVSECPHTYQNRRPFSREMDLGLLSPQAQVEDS
Experiment: Inhibition of enzymatic FLT3 mutant D835Y kinase activity (Lance Ulight TR-FRET)
pIC50: −log10 of the molar value. Counter-ions that a name gives are not always drawn.
Measured pIC50 values are reported for all entries that follow.
OBSERVABLE: pIC50

>>> df
                                   molecule  result_number
0  CN1CCC(Nc2nc(Nc3ccc(Oc4cccc(F)c4)cc3)c3c(=O)[nH]cc(Br)c3n2)CC1.Cl [Compound 238, hydrochloride]           9.40
1  CN1CCC(Nc2nc(Nc3cccc(Oc4ccccc4)c3)c3c(=O)[nH]cc(Br)c3n2)CC1 [Compound 246]           8.77
2  CN1CCC(Nc2nc(Nc3ccc(OC4CCCC4)cc3)c3c(=O)[nH]cc(Br)c3n2)CC1 [Compound 223]           9.52
3  CN1CCC(Nc2nc(Nc3ccc(OC4CCCCC4)cc3)c3c(=O)[nH]cc(Br)c3n2)CC1 [Compound 228]           9.22
4  CN1CCC(Nc2nc(Nc3ccc(OCc4ccccc4)cc3)c3c(=O)[nH]cc(Br)c3n2)CC1 [Compound 221]           9.40
5  CN1CCC(Nc2nc(Nc3ccc(Oc4cccc(F)c4)cc3)c3c(=O)[nH]cc(Br)c3n2)CC1 [Compound 240]           8.89
6  Cc1ccc(Oc2ccc(Nc3nc(NC4CCN(C)CC4)nc4c(Br)c[nH]c(=O)c34)cc2)cc1 [Compound 225]           8.80
7  CN1CCC(Nc2nc(Nc3ccc(Oc4ccc(F)c(F)c4)cc3)c3c(=O)[nH]cc(Br)c3n2)CC1 [Compound 241, hydrochloride]           9.22
8  CN1CCC(Nc2nc(Nc3ccc(OC4CCCCC4)cc3)c3c(=O)[nH]cc(Br)c3n2)CC1 [Compound 233, hydrochloride]           9.52

----------
Measured IC50 values are reported for all entries that follow.
target: JAK2 (Homo sapiens, UniProt O60674); construct: Truncated human FLT3 wildtype, mutant D835Y, and JAK2; test: Inhibition of enzymatic JAK2 kinase activity (Lance Ulight TR-FRET)
Sequence (O60674 826-1132 limits assumed): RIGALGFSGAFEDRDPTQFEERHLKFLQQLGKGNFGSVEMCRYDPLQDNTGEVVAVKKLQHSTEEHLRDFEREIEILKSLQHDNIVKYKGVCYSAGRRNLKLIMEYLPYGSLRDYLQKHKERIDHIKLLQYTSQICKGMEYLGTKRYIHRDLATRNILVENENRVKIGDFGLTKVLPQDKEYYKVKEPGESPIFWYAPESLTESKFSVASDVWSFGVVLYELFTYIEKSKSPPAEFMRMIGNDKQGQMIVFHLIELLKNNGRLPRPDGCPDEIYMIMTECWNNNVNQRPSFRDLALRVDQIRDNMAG
Where a name gives a salt, the structure may show the parent alone.
OBSERVABLE: IC50 (nM)

In [3]: df
Out[3]:
                                   compound  readout_units  result_number
0  CN1CCC(Nc2nc(Nc3ccc(Oc4ccccc4)cc3)c3c(=O)[nH]cc(Br)c3n2)CC1 [Compound 226, hydrochloride]             nM            281
1  CN1CCC(Nc2nc(Nc3cccc(Oc4ccccc4)c3)c3c(=O)[nH]cc(Br)c3n2)CC1 [Compound 246]             nM            260
2  Cc1ccc(Oc2ccc(Nc3nc(NC4CCN(C)CC4)nc4c(Br)c[nH]c(=O)c34)cc2)cc1 [Compound 225]             nM           1520
3  CN1CCC(Nc2nc(Nc3ccc(Oc4cccc(F)c4)cc3)c3c(=O)[nH]cc(Br)c3n2)CC1 [Compound 240]             nM            599
4  CN1CCC(Nc2nc(Nc3ccc(OCc4ccccc4)cc3)c3c(=O)[nH]cc(Br)c3n2)CC1 [Compound 221]             nM            290
5  CN1CCC(Nc2nc(Nc3ccc(OC4CCCCC4)cc3)c3c(=O)[nH]cc(Br)c3n2)CC1 [Compound 233, hydrochloride]             nM            173
